- PROCEDURE_SUMMARY: Plasma protein binding in rabbit
- Type: ADME, cell-free, Oryctolagus cuniculus
- CONDITION_DETAILS: read-out: PPB (converted)
PARAMETER: fraction unbound

// below: answered compounds
COc1cccc2c1c(NCC(C)(C)c1ccccc1)nn2C
< 0.001
CCNC(=O)O[C@H]1CC[C@](CNc2n[nH]c3cccc(OC)c23)(c2ccccc2)CC1
0.003

# input for lookup
Lookup: Any idea what fraction unbound was measured for COc1cccc2onc(NCC(C)(C)c3ccccc3)c12 ?
Found: < 0.001

* * *

- PROCEDURE_SUMMARY: Half life in Sprague-Dawley rat at 10 umol/kg, via carotid artery by LC-MS method
- Format: ADME, organism-based
- CONDITION_DETAILS: in vivo
Threshold 2 h: half-life strictly smaller gives 1.0, otherwise 0.0.

Here's what some known entries look like.
CCNC(=O)O[C@H]1CC[C@](CNc2nn(C)c3cccc(OC)c23)(c2ccccc2)CC1
1.0
COc1cccc2snc(NCC(C)(C)c3ccccc3)c12
1.0
COc1cccc2c1C(NCC(C)(C)c1ccccc1)=NC2=O
1.0
CCNC(=O)O[C@H]1CC[C@](CNc2n[nH]c3cccc(OC)c23)(c2ccccc2)CC1
1.0
COc1cccc2oc(=O)nc(NCC(C)(C)c3ccccc3)c12
1.0

Lookup: API: query returns whether the compound falls strictly under 2 h in half-life. Query: COc1cccc2onc(NCC(C)(C)c3ccccc3)c12
Found: 0.0

Lookup: API: query returns whether the compound falls strictly under 2 h in half-life. Query: COc1cccc2c1c(NCC(C)(C)c1ccccc1)nn2C
Found: 0.0

Lookup: API: query returns whether the compound falls strictly under 2 h in half-life. Query: COc1cccc2ccnc(NCC(C)(C)c3ccccc3)c12
Found: 1.0

* * *

Listed below: Papp values for each entry.
- PROCEDURE_SUMMARY: Permeability of the compound by PAMPA
- Format: ADME
- CONDITION_DETAILS: read-out: permeability
Return type: number; implicit unit ×10⁻⁶ cm/s.

// below: answered compounds
CCNC(=O)O[C@H]1CC[C@](CNc2n[nH]c3cccc(OC)c23)(c2ccccc2)CC1
67
COc1cccc2nc(O)nc(NCC(C)(C)c3ccccc3)c12
81.6
COc1cccc2oc(=O)nc(NCC(C)(C)c3ccccc3)c12
69.5

# input for lookup
Lookup: Any idea what Papp was measured for COc1cccc2c1C(NCC(C)(C)c1ccccc1)=NC2=O ?
Found: 79

* * *

- SUBJECT_OF_TEST: Potassium voltage-gated channel subfamily A member 5 (Homo sapiens, UniProt P22460)
- Sequence (P22460 whole entry): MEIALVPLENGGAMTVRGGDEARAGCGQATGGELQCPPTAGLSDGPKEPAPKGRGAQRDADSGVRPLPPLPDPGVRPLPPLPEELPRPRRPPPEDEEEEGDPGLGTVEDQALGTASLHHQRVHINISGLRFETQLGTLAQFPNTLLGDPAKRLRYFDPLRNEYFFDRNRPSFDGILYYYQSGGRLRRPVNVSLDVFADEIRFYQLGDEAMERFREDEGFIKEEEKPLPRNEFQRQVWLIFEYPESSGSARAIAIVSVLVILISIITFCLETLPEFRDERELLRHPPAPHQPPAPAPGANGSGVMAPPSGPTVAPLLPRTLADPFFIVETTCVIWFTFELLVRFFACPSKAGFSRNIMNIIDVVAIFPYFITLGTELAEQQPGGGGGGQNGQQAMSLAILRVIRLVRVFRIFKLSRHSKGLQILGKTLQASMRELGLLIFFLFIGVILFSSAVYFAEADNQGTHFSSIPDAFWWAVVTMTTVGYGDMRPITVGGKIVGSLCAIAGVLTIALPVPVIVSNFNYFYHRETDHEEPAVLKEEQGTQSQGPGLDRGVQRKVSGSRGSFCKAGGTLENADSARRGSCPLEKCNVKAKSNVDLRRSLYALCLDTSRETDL
- PROCEDURE_SUMMARY: Inhibition of human Kv1.5 expressed in mouse L929 cells assessed as inhibition of current
Threshold 90 nM: IC50 strictly smaller gives yes, otherwise no.

Here's what some known entries look like.
COc1cccc2nc(Cl)nc(NCC(C)(C)c3ccccc3)c12
yes
COc1cccc2onc(NCC(C)(C)c3ccccc3)c12
yes
CC(C)(CNc1noc2cccc(O)c12)c1ccccc1
no

Lookup: API: query returns whether the compound falls strictly under 90 nM in IC50. Query: CC(C)(CNc1noc2ccccc12)c1ccccc1
Found: no

* * *

- SUBJECT_OF_TEST: Potassium voltage-gated channel subfamily A member 5 (Homo sapiens, UniProt P22460)
- PROCEDURE_SUMMARY: Inhibition of human Kv1.5 expressed in mouse L929 cells assessed as inhibition of current at 0.3 uM
- Assay type: cell-based
Listed below: inhibition values for each entry.
Return type: number; implicit unit %.

Lookup: Any idea what inhibition was measured for CC(C)(CNc1noc2cccc(Cl)c12)c1ccccc1 ?
Found: 33

Lookup: Any idea what inhibition was measured for COc1cccc2[nH]nc(NCC(C)(C)c3ccccc3)c12 ?
Found: 37
